# System: HCI-025 (organoid from a breast cancer xenograft)
# Procedure Text: CTG-3D luminescence at 96 h relative to day-0 seeding control (ratio to day 0); higher = more growth / less cytotoxicity; PDxO 3D drug screen (set 2), 96 h, CTG-3D normalised to day-0 seeding control.
# Measurement Setup: 100 µM; days in culture: 224
Classify as follows. Reported CTG-3D luminescence at 96 h greater than or equal to 1: 1 (yes). Reported CTG-3D luminescence at 96 h below: 0 (no).

# example entries with known answers
{"Compound": "COc1cccc2c1C(=O)c1c(O)c3c(c(O)c1C2=O)C[C@@](O)(C(=O)CO)C[C@@H]3O[C@H]1C[C@H](N)[C@@H](O)[C@H](C)O1 [epirubicin]", "Discrete Label": "0 (no)"}
{"Compound": "C[C@@H](Nc1cc(F)cc(F)c1)c1cc(C(=O)N(C)C)cc2c(=O)cc(N3CCOCC3)oc12", "Discrete Label": "1 (yes)"}
{"Compound": "CCOc1ccn(-c2ccc(F)cc2)c(=O)c1C(=O)Nc1ccc(Oc2ccnc(N)c2Cl)c(F)c1", "Discrete Label": "1 (yes)"}
{"Compound": "CO[C@H]1C[C@@H]2CC[C@@H](C)[C@@](O)(O2)C(=O)C(=O)N2CCCC[C@H]2C(=O)O[C@H]([C@H](C)C[C@@H]2CC[C@@H](OCCO)[C@H](OC)C2)CC(=O)[C@H](C)/C=C(\\C)[C@@H](O)[C@@H](OC)C(=O)[C@H](C)C[C@H](C)/C=C/C=C/C=C/1C", "Discrete Label": "0 (no)"}

Now, please, on to the next compound.
Does CTG-3D luminescence at 96 h meet or surpass 1 for "CC(=O)O[C@@]12CO[C@@H]1C[C@H](O)[C@@]1(C)C(=O)[C@H](O)C3=C(C)[C@@H](OC(=O)[C@H](O)[C@@H](NC(=O)OC(C)(C)C)c4ccccc4)C[C@@](O)([C@@H](OC(=O)c4ccccc4)[C@H]21)C3(C)C" ?
0 (no)
